// provenance: patent US8802664B2

target: human H4 receptor (Homo sapiens); construct: expressed in transfected cells; assay: [3H]Histamine binding on membranes of CHO cells stably expressing human H4 receptor
Quantity name: Ki or IC50 activity class

Check out these entries, answers already filled in.
-- ask Request - read-out Ki or IC50 activity class | tested on human H4 receptor (Homo sapiens) | compound CCOC(=O)NCCCCC#Cc1cccc(C(OC2CCN(C)CC2)c2nc3ccccc3n2C)c1 (stereo not shown) [Example 549]
-- reply < 1000 nM

-- ask Request - read-out Ki or IC50 activity class | tested on human H4 receptor (Homo sapiens) | compound CN1CCC(OC(c2cccc(C#CC3CN(C(=N)N)C3)c2)c2nc3ccccc3[nH]2)CC1 (stereo not shown) [Example 426]
-- reply < 300 nM

-- ask Request - read-out Ki or IC50 activity class | tested on human H4 receptor (Homo sapiens) | compound CN1CCC(OC(c2ccccc2)c2nc3cccc(N)c3[nH]2)CC1 (stereo not shown) [Example 200]
-- reply < 300 nM

-- ask Request - read-out Ki or IC50 activity class | tested on human H4 receptor (Homo sapiens) | compound CN1CCC(OC(c2cccc(CCCCCNC(=N)N)c2)c2nc3ccccc3s2)CC1 (stereo not shown) [Example 365]
-- reply < 300 nM

-- ask Request - read-out Ki or IC50 activity class | tested on human H4 receptor (Homo sapiens) | compound Cc1cc(F)c(C(OC2CCN(C)CC2)c2nc3ccccc3[nH]2)c(F)c1 (stereo not shown) [Example 523]
-- reply < 30 nM

Further cases:
-- ask Request - read-out Ki or IC50 activity class | tested on human H4 receptor (Homo sapiens) | compound COCCn1c(C(OC2CCN(C)CC2)c2cccc(C#CCCCCN)c2)nc2ccccc21 (stereo not shown) [Example 501]
-- reply < 300 nM

-- ask Request - read-out Ki or IC50 activity class | tested on human H4 receptor (Homo sapiens) | compound CN1CCC(OC(c2cccc(OCCCF)c2)c2nc3ccccc3s2)CC1 (stereo not shown) [Example 176]
-- reply < 30 nM

---

Counter-ions that a name gives are not always drawn.
Quantity name: melting point (°C)

Check out these entries, answers already filled in.
-- ask Can you look up the measured melting point of CN1CCC(OC(c2cccc(SCCCCCCO)c2)c2nc3ccccc3s2)CC1 (centres unmarked) (as salt: oxalate) for me?
-- reply 80

-- ask Can you look up the measured melting point of CN1CCC(OC(c2cccc(N3CCC(CO)C3)c2)c2nc3ccccc3s2)CC1 (centres unmarked) (as salt: oxalate) for me?
-- reply 106

A. CN1CCC(OC(c2cccc(F)c2)c2nc3ccccc3[nH]2)CC1 (centres unmarked)
B. CN1CCC(OC(c2ccccc2)c2nc3cc(Br)ccc3[nH]2)CC1 (centres unmarked)
-- ask // select label with min value of measured melting point from [ A , B ] Which one? Tell me its label.
-- reply A

---

target: human H4 receptor (Homo sapiens, UniProt Q9H3N8); construct: expressed in transfected cells; assay: [3H]Histamine binding on membranes of CHO cells stably expressing human H4 receptor
Quantity name: Ki or IC50 activity class

-- ask Can you look up the measured Ki or IC50 activity class of CN1CCC(OC(c2cccc(SCCCCN)c2)c2nc3ccccc3[nH]2)CC1 (stereo not shown) for me?
-- reply < 30 nM

-- ask Can you look up the measured Ki or IC50 activity class of CN1CCC(OC(c2cccc(-c3cccc(F)c3)c2)c2nc3ccccc3s2)CC1 (stereo not shown) for me?
-- reply < 30 nM

-- ask Can you look up the measured Ki or IC50 activity class of CN1CCC(OC(c2cccc(-c3ccc4c(c3)OCO4)c2)c2nc3ccccc3[nH]2)CC1 (stereo not shown) for me?
-- reply < 300 nM

-- ask Can you look up the measured Ki or IC50 activity class of CN1CCC(OC(c2cccc(OCc3cccc([N+](=O)[O-])c3)c2)c2nc3ccccc3s2)CC1 (stereo not shown) for me?
-- reply < 30 nM

-- ask Can you look up the measured Ki or IC50 activity class of CN1CCC(NC(c2cccc(C(F)(F)F)c2)c2nc3ccccc3[nH]2)CC1 (stereo not shown) for me?
-- reply < 30 nM

Further cases:
-- ask Can you look up the measured Ki or IC50 activity class of CN1CCC(OC(c2nc3ccccc3[nH]2)c2ccccc2F)CC1 (stereo not shown) for me?
-- reply < 30 nM

-- ask Can you look up the measured Ki or IC50 activity class of CN1CCC(OC(c2cccc(SC(F)(F)F)c2)c2nc3ccccc3[nH]2)CC1 (stereo not shown) for me?
-- reply < 30 nM

-- ask Can you look up the measured Ki or IC50 activity class of CN1CCC(OC(c2cccc(OCCN3CCN(C(=O)OC(C)(C)C)CC3)c2)c2nc3ccccc3[nH]2)CC1 (stereo not shown) for me?
-- reply < 1000 nM

-- ask Can you look up the measured Ki or IC50 activity class of CN1CCC(OC(c2nc3ccccc3[nH]2)c2ccccc2O)CC1 (single isomer, unassigned) [Example 627] for me?
-- reply < 30 nM

-- ask Can you look up the measured Ki or IC50 activity class of CN1CCC(OC(c2cccc(OC3CNC3)c2)c2nc3ccccc3s2)CC1 (stereo not shown) for me?
-- reply < 300 nM

-- ask Can you look up the measured Ki or IC50 activity class of CN1CCC(OC(c2cccc(SCCO)c2)c2nc3ccccc3[nH]2)CC1 (stereo not shown) for me?
-- reply < 300 nM

-- ask Can you look up the measured Ki or IC50 activity class of CCOc1cccc(C(NC2CCN(C)CC2)c2nc3ccccc3[nH]2)c1 (stereo not shown) for me?
-- reply < 300 nM

-- ask Can you look up the measured Ki or IC50 activity class of CN1CCC(OC(c2cccc(C=CS(C)(=O)=O)c2)c2nc3ccccc3s2)CC1 (stereo not shown) for me?
-- reply < 1000 nM
